Ref: ChEMBL document CHEMBL4296182

Tested on: Staphylococcus aureus
experimental-details: Antibacterial activity against Staphylococcus aureus MRSA ATCC 43300 (CO-ADD:GP_020); MIC in CAMBH media using NBS plates, by Resazurin F(560/590)
Format: functional
applied-conditions: Concentration 20 uM, ASSAY_TEST Inhibition of Bacterial Growth, detection method Resazurin, Fluorescence (ex560/em590), MEDIA CAMHB, plate type 384well, CORNING #3640, time 18 hr
Listing of entries alongside the reported Inhibition.
Return type: number; implicit unit %.

compound	Inhibition [%]
CSc1nc2cc(S(=O)(=O)N3CCCCC3)ccc2s1	2.12
CCCCOc1nc2c(c(=O)n(C)c(=O)n2C)n1C	18.84
CCCNC(=O)c1ccc(Cl)cc1Cl	12.41
COc1cc(C(=O)C(=O)c2cc(OC)c(O)c(OC)c2)cc(OC)c1O	3.22
Cc1cc(NC(=O)Nc2cccc3ccccc23)no1	-11.32

stdin: Using the record for CN(C)c1nc(Cl)nc2c1nc(Cl)n2C1CCCCO1 (stereo unspecified) , state its measured Inhibition.
stdout: 8.01

###

Test system: Candida albicans
applied-conditions: 20 µM
Description: Antifungal activity against Candida albicans ATCC 90028 (CO-ADD:FG_001); MIC in YNB media using NBS plates, by OD630
Entries with a potency or affinity are not part of this list.
measure-name: Inhibition (%)
Return type: number; implicit unit %.

compound	Inhibition, %
COc1ccc(C2C3=C(COC3=O)Oc3cc4c(cc32)OCO4)cc1OC (configuration not stated)	0.53

stdin: Using the record for CSC1=NC=C(C#N)C2=NC(c3ccc(Cl)cc3)NN12 (configuration not stated) , state its measured Inhibition.
stdout: 1.44

stdin: Using the record for `OCc1ncc(-c2ccccc2)s1` , state its measured Inhibition.
stdout: 2.13

stdin: Using the record for `CCSc1ncc(CO)c(N)n1` , state its measured Inhibition.
stdout: 0.06

stdin: Using the record for `O=C(O)c1cc2cc(OCc3ccccc3)ccc2[nH]1` , state its measured Inhibition.
stdout: 9.61

stdin: Using the record for `COc1cc(/C=N/N=c2\[nH]c3c(=O)n(C)c(=O)n(C)c3[nH]2)ccc1O` , state its measured Inhibition.
stdout: 48.3

stdin: Using the record for COC1OCC(O)C(NC(=O)N(C)N=O)C1O (configuration not stated) , state its measured Inhibition.
stdout: 5.35

stdin: Using the record for O=C1CCCC1C(=O)Nc1ccc2ccccc2c1 (configuration not stated) , state its measured Inhibition.
stdout: 10.3

stdin: Using the record for `CO/N=C1/C=C(C)C(=O)C(C)=C1C` , state its measured Inhibition.
stdout: -2

stdin: Using the record for `O=C(Nc1ccc(Cl)c(Cl)c1)Nc1ccccc1O` , state its measured Inhibition.
stdout: 3.05

stdin: Using the record for `COc1cc(/N=N/c2cccc(S(N)(=O)=O)c2)c2ccccc2c1N` , state its measured Inhibition.
stdout: 0.44

stdin: Using the record for `Cc1ccc(S(=O)(=O)CCOC(=O)CNC(=O)OCc2ccccc2)cc1` , state its measured Inhibition.
stdout: 2.97

###

Tested on: Escherichia coli
experimental-details: Antibacterial activity against Escherichia coli ATCC 25922 (CO-ADD:GN_001); MIC in CAMBH media using NBS plates, by Resazurin F(560/590)
Format: functional
applied-conditions: Concentration 20 uM, ASSAY_TEST Inhibition of Bacterial Growth, detection method Resazurin, Fluorescence (ex560/em590), MEDIA CAMHB, plate type 384well, CORNING #3640, time 18 hr
measure-name: Inhibition (%)
Return type: number; implicit unit %.

stdin: Using the record for COc1ccc(C2OC3=Nc4cc(C)c(C)cc4NC3=C2O)cc1 (configuration not stated) , state its measured Inhibition.
stdout: 1.83

stdin: Using the record for CC(=O)NCC1(O)CCCC(C)C1 (configuration not stated) , state its measured Inhibition.
stdout: 5.11

stdin: Using the record for COc1ccn(C2CCCCO2)c(=O)n1 (configuration not stated) , state its measured Inhibition.
stdout: 3.33

stdin: Using the record for `CN(c1cccnc1)c1[nH]cnc2nncc1-2` , state its measured Inhibition.
stdout: -0.96

stdin: Using the record for O=S1(=O)CCC(N(/N=C/c2ccco2)c2ccccc2)C1 (configuration not stated) , state its measured Inhibition.
stdout: -3.36

stdin: Using the record for `Cc1ccc(NC(=O)Nc2ccccc2C(N)=O)cc1` , state its measured Inhibition.
stdout: 6.22

stdin: Using the record for `C=CCNC(=S)NCC=C` , state its measured Inhibition.
stdout: 3.32
